experiment: Inhibitory concentration against Escherichia coli heat-labile enterotoxin (LT) binding to ganglioside GD1b was determined by ELISA assay

| SUBSTANCE | IC50, µM |
| --- | --- |
| LACTOSE, ANHYDROUS | 45 |
